EXPERIMENTAL_SYSTEM: T1, (NANP)9 peptide (Plasmodium falciparum CSP repeat, …)
T1 construct: printed as (NANP)9, written out here; NANP repeat of P. falciparum CSP
T1 chain: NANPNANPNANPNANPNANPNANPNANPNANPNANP
TEST_DESCRIPTION: ELISA; recombinant 2A10, germline precursor, hybrids and their point mutants tested on the (NANP)9 peptide; details in S1 Methods

BINDER	binding result
2A10 gAb with light chain T117V (antibody, V domains shown, as the heavy chain of m17 (gHC); as the light chain of m17 (gLC); source: HEK293T cells, expressed) VH: QIQLVQSGPELKKPGETVKISCKASGYTFTNYGMNWVKQAPGKGLKWMGWINTNTGEPTYAEEFKGRFAFSLETSASTAYLQINNLKNEDTATYFCARGSEFGRLDYWGQGASVTVSS VL: DIQMTQTTSSLSASLGDRVTISCSASQGISNYLNWYQQKPDGTVKLLIYYTSSLHSGVPSRFSGSGSGTDYSLTISNLEPEDIATYYCQQYSKLPYVFGGGTKLEIK	binds
hybrid antibody: 2A10 light chain (mLC) paired with germline heavy chain (gHC) (antibody, V domains shown, as the heavy chain of m17 (gHC); as the light chain of m7; also called mLC + gHC; source: HEK293T cells, expressed) VH: QIQLVQSGPELKKPGETVKISCKASGYTFTNYGMNWVKQAPGKGLKWMGWINTNTGEPTYAEEFKGRFAFSLETSASTAYLQINNLKNEDTATYFCARGSEFGRLDYWGQGASVTVSS VL: DIQMTQTTSSLSASLGDRVTISCSASQGISNYLNWYQQKPDGTVKLLIFYTSTLYSGVPSRFSGSGSGTDYSLTISNLEPEDIATYYCQQYSRFPYVFGGGTKLEIK	binds
predicted germline precursor to the 2A10 antibody (2A10 gAb) (antibody, V domains shown, predicted germline heavy chain (gHC) of 2A10 by V-quest; the 2A10 heavy chain carries 6 mutations against it; predicted germline light chain (gLC) of 2A10 by V-quest; the 2A10 light chain carries 7 mutations against it; also called gHC + gLC; source: HEK293T cells, expressed) VH: QIQLVQSGPELKKPGETVKISCKASGYTFTNYGMNWVKQAPGKGLKWMGWINTNTGEPTYAEEFKGRFAFSLETSASTAYLQINNLKNEDTATYFCARGSEFGRLDYWGQGASVTVSS VL: DIQMTQTTSSLSASLGDRVTISCSASQGISNYLNWYQQKPDGTVKLLIYYTSSLHSGVPSRFSGSGSGTDYSLTISNLEPEDIATYYCQQYSKLPYTFGGGTKLEIK	binds
